Measured values drawn from patent US9765092B2 for this set.

Target: human TPH1 (Homo sapiens (Human), UniProt P17752)
Sequence (P17752 whole entry): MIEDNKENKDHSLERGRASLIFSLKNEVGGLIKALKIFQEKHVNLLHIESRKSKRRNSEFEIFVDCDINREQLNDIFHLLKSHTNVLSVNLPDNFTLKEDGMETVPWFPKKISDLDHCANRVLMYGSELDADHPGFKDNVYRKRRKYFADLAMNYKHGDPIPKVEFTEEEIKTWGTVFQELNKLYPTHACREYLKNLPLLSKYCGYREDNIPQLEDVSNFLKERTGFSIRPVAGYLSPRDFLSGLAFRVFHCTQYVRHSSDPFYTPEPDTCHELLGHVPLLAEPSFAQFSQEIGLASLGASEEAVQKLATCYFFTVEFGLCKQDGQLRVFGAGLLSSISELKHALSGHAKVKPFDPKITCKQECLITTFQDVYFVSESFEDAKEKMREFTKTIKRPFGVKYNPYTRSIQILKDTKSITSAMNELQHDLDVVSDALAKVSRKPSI
Test: Biochemical in vitro assay using fluorescence readout (TPH1 inhibition)
Settings: human TPH1, fluorescence readout
Checkbox rule: IC50 lower than 40 nM = rule met; IC50 not lower than 40 nM = rule not met.

Please review the following examples before continuing.
• Cc1nn2c3c(nc2s1)CCN(C(=O)COc1ccc(N(C)CC(F)(F)F)nc1Cl)C3c1ncc(C2CC2)cc1F (centres unmarked) [Example 1.14.10] = rule met
• CCc1nc(N2CCCS2(=O)=O)ccc1OCC(=O)N1CCc2nc3sc(C(F)(F)F)nn3c2C1c1ncc(C)cc1F (centres unmarked) [Example 5.2.1] = rule met

// switching to the query compound
(Q) Could you please tell me whether IC50 recorded for CNC(=O)c1cc(F)c(C2c3c(nc4sc(C)nn34)CCN2C(=O)COc2ccc(N3CCOCC3)nc2Cl)s1 (centres unmarked) [Example 1.25.1] is less than 40 nM?
(A) rule met
